tested-on: KMO mouse enzyme (Mus musculus, UniProt Q91WN4)
Construct: KMO enzyme prepared at Evotec from mouse liver (4-6 weeks old) via mitochondria isolation; from tissue; host or cells: mouse liver (4-6 weeks old), isolated mitochondria
Sequence (Q91WN4 whole entry): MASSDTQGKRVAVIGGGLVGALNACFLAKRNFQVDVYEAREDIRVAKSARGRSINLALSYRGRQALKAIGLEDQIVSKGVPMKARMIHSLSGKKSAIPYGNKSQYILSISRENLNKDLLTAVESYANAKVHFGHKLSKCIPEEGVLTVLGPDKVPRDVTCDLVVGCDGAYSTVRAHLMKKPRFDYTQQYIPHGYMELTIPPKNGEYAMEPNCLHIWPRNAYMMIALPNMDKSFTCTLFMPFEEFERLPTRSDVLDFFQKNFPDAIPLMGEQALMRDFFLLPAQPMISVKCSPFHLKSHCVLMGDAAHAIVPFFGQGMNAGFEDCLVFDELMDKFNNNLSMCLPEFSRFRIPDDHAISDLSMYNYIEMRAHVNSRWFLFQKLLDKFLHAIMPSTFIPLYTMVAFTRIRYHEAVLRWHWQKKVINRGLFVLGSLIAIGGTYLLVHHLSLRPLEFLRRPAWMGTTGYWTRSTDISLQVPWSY
assay-comment: KMO mouse enzyme assay: L-Kynurenine hydroxylation to 3OH-KYN by LC/MS
Assay type: biochemical
condition-context: compound at 10 μM; KMO from mouse liver mitochondria; read-out: INH.Mouse @ 10 μM
observed-property: inhibition at 10 µM (%)

>  <query-smiles>
CO/N=C(\CCc1nn[nH]n1)c1ccc(Cl)c(Cl)c1

>  <quantitative-result>
96.4

$$$$
>  <query-smiles>
CO/N=C(\CCC(=O)O)c1ccc(Cl)c(Cl)c1

>  <quantitative-result>
106

$$$$
>  <query-smiles>
O=C(O)CC/C(=N\OCC1CC1)c1ccc(Cl)c(Cl)c1

>  <quantitative-result>
99.6

$$$$
>  <query-smiles>
CO/N=C(\CCC(=O)NC(C)C)c1ccc(Cl)c(Cl)c1

>  <quantitative-result>
94.3

$$$$
>  <query-smiles>
CO/N=C(\CCC(=O)OC1CCC1)c1ccc(Cl)c(Cl)c1

>  <quantitative-result>
102

$$$$
>  <query-smiles>
CON=C(CCC(=O)Nc1cnccn1)c1ccc(Cl)c(Cl)c1

>  <quantitative-result>
98

$$$$

# credit: patent US20110230428A1
